Please respond with reported IC50 for every item in the list.
Biological target: PDE10A (Homo sapiens, UniProt Q9Y233)
Sequence (Q9Y233 whole entry, species assumed): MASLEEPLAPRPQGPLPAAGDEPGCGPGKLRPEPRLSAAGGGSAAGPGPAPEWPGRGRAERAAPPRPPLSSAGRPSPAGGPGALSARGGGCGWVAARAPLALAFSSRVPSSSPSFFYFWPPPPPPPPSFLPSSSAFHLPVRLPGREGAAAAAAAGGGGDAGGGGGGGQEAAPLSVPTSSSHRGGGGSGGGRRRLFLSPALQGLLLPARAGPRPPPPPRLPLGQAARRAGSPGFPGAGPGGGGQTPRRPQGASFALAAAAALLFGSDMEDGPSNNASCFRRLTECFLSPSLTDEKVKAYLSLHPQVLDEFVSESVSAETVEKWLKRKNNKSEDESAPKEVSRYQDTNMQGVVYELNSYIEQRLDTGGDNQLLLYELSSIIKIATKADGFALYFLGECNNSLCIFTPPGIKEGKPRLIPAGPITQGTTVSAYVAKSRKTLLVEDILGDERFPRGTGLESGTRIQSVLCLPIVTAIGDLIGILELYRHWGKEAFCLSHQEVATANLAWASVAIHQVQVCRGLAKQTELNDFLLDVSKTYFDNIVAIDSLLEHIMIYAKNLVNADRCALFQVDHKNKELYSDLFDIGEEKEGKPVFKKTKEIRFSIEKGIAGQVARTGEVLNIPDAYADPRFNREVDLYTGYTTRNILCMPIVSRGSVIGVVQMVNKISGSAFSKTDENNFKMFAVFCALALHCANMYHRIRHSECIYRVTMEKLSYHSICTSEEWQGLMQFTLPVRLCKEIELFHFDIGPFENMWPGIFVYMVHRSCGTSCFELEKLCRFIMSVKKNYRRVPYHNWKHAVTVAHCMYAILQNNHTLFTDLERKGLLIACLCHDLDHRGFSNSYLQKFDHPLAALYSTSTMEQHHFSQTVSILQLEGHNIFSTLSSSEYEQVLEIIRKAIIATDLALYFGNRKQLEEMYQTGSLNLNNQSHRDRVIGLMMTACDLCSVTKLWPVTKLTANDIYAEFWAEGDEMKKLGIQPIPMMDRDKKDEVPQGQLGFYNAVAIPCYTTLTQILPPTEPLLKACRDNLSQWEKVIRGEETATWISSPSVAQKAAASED
Assay: luminescence PDE inhibition assay (PDElight HTS cAMP phosphodiesterase assay kit)
Format: biochemical
Conditions: SEM of three independent experiments performed in duplicate
Give bare numbers, in µM.

Illustrative cases are given below, each with its answer.
>>> reported_measurement("COc1cccc2c1C(=O)N(CCCc1nc3ccccc3[nH]1)C2=O")
1
>>> reported_measurement("COc1cccc2c1C(=O)N(CCc1nc3ccccc3[nH]1)C2=O")
6.71
>>> reported_measurement("O=C1c2ccccc2C(=O)N1CCCCc1nc2ccccc2[nH]1")
5.65
>>> reported_measurement("COc1cccc2c1C(=O)N(CCCCCc1nc3ccccc3[nH]1)C2=O")
4.31

Kindly review the next molecule as well.
**Q:** I have this molecule here, `COc1cccc2c1C(=O)N(CCCCc1nc3ccccc3[nH]1)C2=O` , and I need its recorded IC50.
**A:** 0.886

###

Please respond with reported melting point for every item in the list.

Illustrative cases are given below, each with its answer.
>>> reported_measurement("COc1cc2c(cc1OC)CN(CCN1C(=O)c3cccc(OC)c3C1=O)CC2")
"108 to 109 °C"
>>> reported_measurement("COc1cccc2c1C(=O)N(CCCCc1nc3ccccc3[nH]1)C2=O")
"69 to 70 °C"
>>> reported_measurement("COc1cccc2c1C(=O)N(CCN1CCc3ccccc3C1)C2=O")
"157 to 158 °C"
>>> reported_measurement("COc1cccc2c1C(=O)N(CCCN1CCC3CCCCC3C1)C2=O (stereo not shown)")
"103 to 104 °C"
>>> reported_measurement("O=C1c2ccccc2C(=O)N1CCc1nc2ccccc2[nH]1")
"202 to 203 °C"
>>> reported_measurement("COc1cccc2c1C(=O)N(Cc1nc3ccccc3[nH]1)C2=O")
"239 to 240 °C"
>>> reported_measurement("COc1cccc2c1C(=O)N(CCN1CCC3CCCCC3C1)C2=O (stereo not shown)")
"145 to 146 °C"
>>> reported_measurement("O=C1c2ccccc2C(=O)N1CCCc1nc2ccccc2[nH]1")
"190 to 191 °C"
>>> reported_measurement("COc1cccc2c1C(=O)N(Cc1ccccc1)C2=O")
"167 to 168 °C"
>>> reported_measurement("COc1cccc2c1C(=O)N(CCc1nc3ccccc3[nH]1)C2=O")
"197 to 198 °C"

# map each compound to its melting point
1. O=C1c2ccccc2C(=O)N1CCCCc1nc2ccccc2[nH]1
2. COc1cccc2c1C(=O)N(CCc1ccccn1)C2=O
3. O=C1c2ccccc2C(=O)N1CCCCCc1nc2ccccc2[nH]1
4. COc1cccc2c1C(=O)N(CCc1ccccc1)C2=O

**A:**
1. 179 to 180 °C
2. 155 to 157 °C
3. 168 to 169 °C
4. 123 to 124 °C

# map each compound to its melting point
1. COc1cccc2c1C(=O)N(Cc1ccccn1)C2=O
2. COc1cc2c(cc1OC)CN(CCCN1C(=O)c3cccc(OC)c3C1=O)CC2

**A:**
1: 144 to 145 °C; 2: 107 to 109 °C

###

Target: PDE10A (Homo sapiens)
Test: luminescence PDE inhibition assay (PDElight HTS cAMP phosphodiesterase assay kit)
Assay type: biochemical
Settings: 1 h; percentage of inhibition respective to vehicle control (DMSO); 3 µM
measurement_kind: inhibition at 3 µM (%)
One number for each entry, in %.

>>> reported_measurement("COc1cc2c(cc1OC)CN(CCCN1C(=O)c3cccc(OC)c3C1=O)CC2")
0
>>> reported_measurement("COc1cccc2c1C(=O)N(CCc1ccccn1)C2=O")
0
>>> reported_measurement("COc1cccc2c1C(=O)N(Cc1ccccn1)C2=O")
0

Kindly review the next compound as well.
**Q:** I have this compound here, `COc1cccc2c1C(=O)N(CCCCc1nc3ccccc3[nH]1)C2=O` , and I need its recorded inhibition at 3 µM.
**A:** 79

###

Biological target: PDE10A (Homo sapiens, UniProt Q9Y233)
Experiment: luminescence PDE inhibition assay (PDElight HTS cAMP phosphodiesterase assay kit)
Format: biochemical
Settings: 1 h; percentage of inhibition respective to vehicle control (DMSO); 10 µM
measurement_kind: inhibition at 10 µM (%)
Give bare numbers, in %.

# map each compound to its inhibition at 10 µM
1. COc1cccc2c1C(=O)N(CCCCc1nc3ccccc3[nH]1)C2=O
2. COc1cccc2c1C(=O)N(CCc1ccccn1)C2=O

**A:**
[92, 0]

**Q:** I have this compound here, `COc1cccc2c1C(=O)N(CCc1c[nH]cn1)C2=O` , and I need its recorded inhibition at 10 µM.
**A:** 0

###

Please respond with reported inhibition at 1 µM for every item in the list.
Biological target: UniProtKB P08908
Sequence (P08908 1-422): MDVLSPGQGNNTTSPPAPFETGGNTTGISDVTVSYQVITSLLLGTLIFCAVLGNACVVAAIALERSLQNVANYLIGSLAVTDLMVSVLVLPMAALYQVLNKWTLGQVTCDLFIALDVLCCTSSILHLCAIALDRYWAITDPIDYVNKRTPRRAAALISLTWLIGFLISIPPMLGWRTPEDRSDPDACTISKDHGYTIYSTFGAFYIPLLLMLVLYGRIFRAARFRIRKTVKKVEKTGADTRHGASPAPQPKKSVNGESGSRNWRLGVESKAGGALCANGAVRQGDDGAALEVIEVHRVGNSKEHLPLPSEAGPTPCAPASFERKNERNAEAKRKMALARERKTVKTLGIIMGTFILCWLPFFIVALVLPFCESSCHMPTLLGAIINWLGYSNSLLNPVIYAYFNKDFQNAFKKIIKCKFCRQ
Assay: radioligand binding assay, [3H]8-OH-DPAT
Details: read-out: 5-HT1A 1 µM ± SEM (% of control specific binding)
Write the numeric value and follow it with the unit.

# map each compound to its inhibition at 1 µM
1. COc1cc2c(cc1OC)CN(CCN1C(=O)c3cccc(OC)c3C1=O)CC2
2. COc1cccc2c1C(=O)N(CCCCc1nc3ccccc3[nH]1)C2=O
3. COc1cccc2c1C(=O)N(CCN1CCC3CCCCC3C1)C2=O (stereo not shown)
4. COc1cccc2c1C(=O)N(CCc1c[nH]cn1)C2=O

**A:**
1: 27%; 2: 28%; 3: 25%; 4: 21%

###

Target: PDE10A (Homo sapiens, UniProt Q9Y233)
Assay: luminescence PDE inhibition assay (PDElight HTS cAMP phosphodiesterase assay kit)
Type: biochemical
Conditions: 1 h; percentage of inhibition respective to vehicle control (DMSO); 10 µM
measurement_kind: inhibition at 10 µM
Write the numeric value and follow it with the unit.

Illustrative cases are given below, each with its answer.
>>> reported_measurement("COc1cccc2c1C(=O)N(CCCN1CCc3ccccc3C1)C2=O")
"19%"
>>> reported_measurement("COc1cc2c(cc1OC)CN(CCN1C(=O)c3cccc(OC)c3C1=O)CC2")
"0%"
>>> reported_measurement("COc1cccc2c1C(=O)N(CCN1CCc3ccccc3C1)C2=O")
"0%"

# map each compound to its inhibition at 10 µM
1. O=C1c2ccccc2C(=O)N1CCCCc1nc2ccccc2[nH]1
2. COc1cccc2c1C(=O)N(CCCc1ccccc1)C2=O
3. COc1cccc2c1C(=O)N(CCc1nc3ccccc3[nH]1)C2=O

**A:**
1: 73%; 2: 13%; 3: 70%
